Hi there, I'd appreciate the recorded self-cleavage for every entry that follows.
B1: OR4K15 (parent)
chain: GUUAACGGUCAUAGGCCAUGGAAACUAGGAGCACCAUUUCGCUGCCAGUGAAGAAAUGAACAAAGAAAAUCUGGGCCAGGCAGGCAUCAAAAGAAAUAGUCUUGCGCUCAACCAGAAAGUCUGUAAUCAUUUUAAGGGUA

# Variants of: B1
# ASSAY_INFO: self-cleavage, relative activity (ratio to wild type); higher = more cleavage; in vitro, sequencing; the parent is a self-cleaving ribozyme
One number for each entry.

Look over these answered cases.
A23G A96U    1.17
A30G A91G    0.24
A92G U124C    1

Go through the list and state self-cleavage for each entry.
1. A36G G136U
2. A23U A33U

[1.95, 1.17]

Go through the list and state self-cleavage for each entry.
1. A18G A36U
2. U43C U108C

[1.39, 0.02]

Go through the list and state self-cleavage for each entry.
1. G8A U133G
2. A24G U124A
3. G1A U102G
4. A62G G75U
5. C16A A134G
6. A36U A94G
7. U12C A62G
8. U87C A95G

[2.78, 0.74, 1.23, 0.15, 0.96, 1.44, 1.18, 1.35]

Go through the list and state self-cleavage for each entry.
1. A68G C71A
2. A62U A64G
3. U19C G119A
4. A63C U132C
5. U49C A51C

1. 0.6
2. 1.46
3. 2.13
4. 2.13
5. 0.34

Go through the list and state self-cleavage for each entry.
1. C17G G79A
2. A68G A90G

[0.18, 1.17]
